Taken from a collection of fitness landscapes (doi:10.1126/science.1257360).

Measured enrichment ratio, listed per entry.
B1: PhoQ; a variant is named by its letters at X, in order, P23837 (parent)
chain: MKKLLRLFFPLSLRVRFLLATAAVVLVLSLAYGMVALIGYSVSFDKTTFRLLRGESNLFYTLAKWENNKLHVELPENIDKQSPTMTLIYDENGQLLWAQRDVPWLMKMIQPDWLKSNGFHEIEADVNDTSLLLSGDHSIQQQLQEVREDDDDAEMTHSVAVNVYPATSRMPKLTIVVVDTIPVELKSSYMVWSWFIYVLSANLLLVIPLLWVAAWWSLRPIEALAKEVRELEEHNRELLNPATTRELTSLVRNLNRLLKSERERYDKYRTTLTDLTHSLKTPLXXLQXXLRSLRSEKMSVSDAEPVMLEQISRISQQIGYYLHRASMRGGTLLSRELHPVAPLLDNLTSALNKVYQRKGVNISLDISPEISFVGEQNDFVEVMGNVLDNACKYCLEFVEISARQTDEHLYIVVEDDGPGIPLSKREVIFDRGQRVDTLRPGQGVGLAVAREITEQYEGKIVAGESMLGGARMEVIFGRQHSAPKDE

Variants of: B1
METHOD NOTES: enrichment ratio after two sorts for PhoP signalling (ratio (wild type AVST 3.29)); higher = more functional
EXPERIMENTAL SETUP: with PhoP (E. coli)
In all, about 140,000 sequences were measured (“enrichment ratio after two sorts for PhoP signalling”: median about 0, highest 2% from about 11 on). The full list was thinned out, with the highest values kept by preference.

Request: Suppose we examine the variant `RYKH` ; what enrichment ratio value has been reported?
Response: ≤ 0.25

Request: Suppose we examine the variant `LAEY` ; what enrichment ratio value has been reported?
Response: ≤ 0.25
